# credit: patent US20220144937A1

IC50 of blocking IL-5 induced eosinophil adhesion by entry:
# TARGET ENTITY: T1, human IL-5 with his-tag (rhIL-5-his) (human, UniProt P05113 20-134)
# T1 sequence: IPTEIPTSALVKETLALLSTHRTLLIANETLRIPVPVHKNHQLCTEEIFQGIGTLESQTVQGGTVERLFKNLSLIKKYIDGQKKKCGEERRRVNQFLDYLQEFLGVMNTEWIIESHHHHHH
# ASSAY PROCEDURE: cell-based or functional assay
Give the number; ng/mL is assumed, so skip it.

Solved entries:
>>> reading("h1705-008 (antibody, human IgG1, kappa, V domains shown, IgG1 with M252Y/S254T/T256E, kappa) VH: EVQLVESGGGLVQPGGSLRLSCAASGFTFSHYYMAWVRQAPGKGLEWVTSISYEGDITYYGDSVKGRFTISRDNSKNTLYLQMNSLRAEDTATYYCASQTLRESFDYWGQGTLVTVSS VL: DIQMTQSPSSVSASVGDRVTITCRASQDIANYLSWYQQKPGKSPKLLIYGTSNLEVGVPSRFSGSRSGTDFTLTISSLQPEDFATYYCLQDKEFPRTFGGGTKVEIKR")
4.85
>>> reading("h1706-009 (antibody, human IgG1, kappa, V domains shown) VH: EVQLVESGGGLVQPGGSLRLSCAASGFTFSHYYMAWVRQAPGKGLEWVSSINYEGNSAYYGDSVKGRFTISRDNSKNTLYLQMNSLRAEDTAVYYCATETLRESLDYWGQGTMVTVSS VL: DIQMTQSPSSVSASVGDRVTITCRASQDIGNYLSWYQQKPGKSPKLMIYSASNLEVGVPSRFSGSGSGTDYTLTISSLQPEDFATYFCLQHKQFPRTFGGGTKVEIKR")
4.3

Now take the following binder into account.
I would be grateful if you could share the reported IC50 of blocking IL-5 induced eosinophil adhesion for Hu39D10 (antibody, human IgG4 S228P, kappa, V domains shown, Anti-IL-5 antibody of WO2012083370A1, used as positive control; also called positive control; positive antibody) VH: EVQLVESGGGLVQPGGSLRLSCAVSGLSLTSNSVNWIRQAPGKGLEWVGLIWSNGDTDYNSAIKSRFTISRDTSKSTVYLQMNSLRAEDTAVYYCAREYYGYFDYWGQGTLVTVSS VL: DIQMTQSPSSLSASVGDRVTITCLASEGISSYLAWYQQKPGKAPKLLIYGANSLQTGVPSRFSGSGSATDYTLTISSLQPEDFATYYCQQSYKFPNTFGQGTKVEVKR .
11.8
